The measurements presented in this section are drawn from ChEMBL document CHEMBL4513216.

- method: Toxicity liver stage against HepG2, at 10uM
- Type: cell-based
- Design: test concentration 10 uM, cell line HepG2-A16-CD81EGFP
- testContext: human, HepG2-A16-CD81EGFP cells; read-out: INHIBITION
cytotoxicity at 10 µM values by entry
quantityName: cytotoxicity at 10 µM (%)

>  <molecule>
CC(=O)NCCC(=O)NCC1(c2c(F)cccc2F)CCCC1

>  <quantityName>
cytotoxicity at 10 µM

>  <endpointResult>
-2.75

$$$$
>  <molecule>
Cc1nc(CN2CCCn3c(nc(Cn4ccnc4)cc3=O)C2)cs1

>  <quantityName>
cytotoxicity at 10 µM

>  <endpointResult>
-5.67

$$$$
>  <molecule>
COc1ccc(-c2nnc([C@H]3CCN(CC4CC4)C3)o2)cc1

>  <quantityName>
cytotoxicity at 10 µM

>  <endpointResult>
-4.6

$$$$
>  <molecule>
O=C(c1ccccn1)N1CCCC(c2ncncc2-c2ccncc2)C1 (stereo unspecified)

>  <quantityName>
cytotoxicity at 10 µM

>  <endpointResult>
-0.0141

$$$$
>  <molecule>
CC(C)Nc1cccc(CC2CCN(S(C)(=O)=O)CC2)n1

>  <quantityName>
cytotoxicity at 10 µM

>  <endpointResult>
-22.3

$$$$
>  <molecule>
Cc1cnc(CCNc2cccc(CC3CCCNC3)n2)s1 (stereo unspecified)

>  <quantityName>
cytotoxicity at 10 µM

>  <endpointResult>
-3.02

$$$$

---

cytotoxicity at 10 µM values by entry
- method: Toxicity liver stage against HepG2, at 10uM
- Assay type: cell-based
- Design: test concentration 10 uM, cell line HepG2-A16-CD81EGFP
- testContext: human, HepG2-A16-CD81EGFP cells; read-out: INHIBITION

>  <compound>
COc1ccccc1-c1noc(CNc2ccc(F)cc2OCCO)n1

>  <unitSymbol>
%

>  <cytotoxicity at 10 µM>
-37.7

$$$$
>  <compound>
COC(=O)c1cccc(C(=O)N2CCN(c3ccc(Cl)cc3)CC2)n1

>  <unitSymbol>
%

>  <cytotoxicity at 10 µM>
-7.55

$$$$
>  <compound>
Cc1ccccc1CN1C[C@@H](CN(C)CCO)[C@@H](CO)C1

>  <unitSymbol>
%

>  <cytotoxicity at 10 µM>
-1.03

$$$$
>  <compound>
Cc1nc2c(c(NCc3ccccc3)n1)CCN(C(=O)NC(C)C)CC2

>  <unitSymbol>
%

>  <cytotoxicity at 10 µM>
28.7

$$$$
>  <compound>
Cc1nc(C)n(CC2CCCN2Cc2nc(C)c3ccccc3n2)n1 (stereo unspecified)

>  <unitSymbol>
%

>  <cytotoxicity at 10 µM>
-12.4

$$$$
>  <compound>
Cc1nc(CN2Cc3cn(C)nc3C(COCC3CC3)C2)cs1 (stereo unspecified)

>  <unitSymbol>
%

>  <cytotoxicity at 10 µM>
-68.9

$$$$
>  <compound>
COCc1c(Cl)cccc1NC(=O)NCc1cccc(N(C)C)n1

>  <unitSymbol>
%

>  <cytotoxicity at 10 µM>
0.217

$$$$
>  <compound>
CCOCc1cnc2n1CCN(C(=O)c1ccccc1)C2C (stereo unspecified)

>  <unitSymbol>
%

>  <cytotoxicity at 10 µM>
-103

$$$$
>  <compound>
COc1ccc(CNC(C)c2cnn(C)c2)cc1OC1CCCC1 (stereo unspecified)

>  <unitSymbol>
%

>  <cytotoxicity at 10 µM>
-0.734

$$$$
>  <compound>
CC(NC1(CNC(=O)NC2CC2)CCOCC1)c1ccccc1 (stereo unspecified)

>  <unitSymbol>
%

>  <cytotoxicity at 10 µM>
10.2

$$$$
>  <compound>
CO[C@H]1CN(C(=O)c2ccc3oc(C)cc3c2)CC[C@@]12CCCO2

>  <unitSymbol>
%

>  <cytotoxicity at 10 µM>
0.153

$$$$

---

- method: Toxicity liver stage against HepG2, at 10uM
- Format: cell-based
- Parameters: test concentration 10 uM, cell line HepG2-A16-CD81EGFP
- testContext: human, HepG2-A16-CD81EGFP cells; read-out: INHIBITION
cytotoxicity at 10 µM values by entry

>  <molecule>
Cc1noc2ncc(C(=O)NCC3CCCO3)cc12 (centres undefined)

>  <unitSymbol>
%

>  <cytotoxicity at 10 µM>
-10.2

$$$$
>  <molecule>
CC(CCc1ccccc1)NC(=O)CNCCCN1CCOCC1 (centres undefined)

>  <unitSymbol>
%

>  <cytotoxicity at 10 µM>
-11.1

$$$$
>  <molecule>
O=C(c1ccnnc1)N1CC[C@]2(C[C@H](Oc3ncccc3F)CO2)C1

>  <unitSymbol>
%

>  <cytotoxicity at 10 µM>
3.42

$$$$
>  <molecule>
Cc1ccccc1CN(CCN(C)C)C(=O)c1ccc2nccn2c1

>  <unitSymbol>
%

>  <cytotoxicity at 10 µM>
-2.36

$$$$
>  <molecule>
COc1ccc(CN2CC[C@H](c3nc4cccc(C(N)=O)c4[nH]3)C2)cc1

>  <unitSymbol>
%

>  <cytotoxicity at 10 µM>
12.1

$$$$
>  <molecule>
COCCN1CCN(CCS(=O)(=O)c2cccc(OC)c2)CC1

>  <unitSymbol>
%

>  <cytotoxicity at 10 µM>
-1.33

$$$$
>  <molecule>
Cc1ccc(CNC(=O)CN2CCCC(Cn3cncn3)C2)cc1 (centres undefined)

>  <unitSymbol>
%

>  <cytotoxicity at 10 µM>
-11.5

$$$$
>  <molecule>
O=C(Cc1noc2ccccc12)N1CCC(Nc2cccnn2)CC1

>  <unitSymbol>
%

>  <cytotoxicity at 10 µM>
-7.85

$$$$
>  <molecule>
Cc1cc(C[S+]([O-])Cc2ccccc2C)no1 (centres undefined)

>  <unitSymbol>
%

>  <cytotoxicity at 10 µM>
9.13

$$$$
>  <molecule>
O=S(=O)(NC1CCOC1)c1ccc(C(F)(F)F)nc1 (centres undefined)

>  <unitSymbol>
%

>  <cytotoxicity at 10 µM>
8.16

$$$$
>  <molecule>
N#Cc1c(Cl)nsc1NCc1ccc(N2CCSCC2)cc1

>  <unitSymbol>
%

>  <cytotoxicity at 10 µM>
1.24

$$$$
>  <molecule>
COc1ncccc1CNC(=O)c1cnc(C)cn1

>  <unitSymbol>
%

>  <cytotoxicity at 10 µM>
-4.69

$$$$
>  <molecule>
COc1c(C2CCCN2Cc2nccn2C)c(C)nn1C (centres undefined)

>  <unitSymbol>
%

>  <cytotoxicity at 10 µM>
3.06

$$$$
>  <molecule>
CN(C)c1ncc(CNC(=O)Nc2ccccc2F)n1C

>  <unitSymbol>
%

>  <cytotoxicity at 10 µM>
-46.9

$$$$
>  <molecule>
CC(=O)N1CCC(=O)N(C2CCCC2)Cc2ccccc21

>  <unitSymbol>
%

>  <cytotoxicity at 10 µM>
-6.09

$$$$
>  <molecule>
Cc1nc(C2CCCN2Cc2cc(Cl)c3c(c2)OCCO3)no1 (centres undefined)

>  <unitSymbol>
%

>  <cytotoxicity at 10 µM>
7.1

$$$$
>  <molecule>
CN1[C@H](Cn2cccn2)C[C@@H]2CN(C(=O)Cc3cccs3)CC[C@@H]21

>  <unitSymbol>
%

>  <cytotoxicity at 10 µM>
9.58

$$$$
>  <molecule>
CC(=O)N1[C@H](Cn2cncn2)C[C@@H]2CN(c3ncc(F)cn3)CC[C@@H]21

>  <unitSymbol>
%

>  <cytotoxicity at 10 µM>
-5.09

$$$$
>  <molecule>
COc1c(CNCc2cnn(C)c2)c(C(C)C)nn1C

>  <unitSymbol>
%

>  <cytotoxicity at 10 µM>
-7.39

$$$$
>  <molecule>
CCC(=O)N1CC[C@H](O)[C@@H]1Cc1ccccc1

>  <unitSymbol>
%

>  <cytotoxicity at 10 µM>
0.081

$$$$
>  <molecule>
CC1CCN(CCNC(=O)c2ccccc2N2CCOCC2)CC1

>  <unitSymbol>
%

>  <cytotoxicity at 10 µM>
-6.05

$$$$
>  <molecule>
Cc1ccccc1CCNC(=O)CN1CCCC(Cn2cncn2)C1 (centres undefined)

>  <unitSymbol>
%

>  <cytotoxicity at 10 µM>
-5.04

$$$$
>  <molecule>
COCC(NC(=O)c1ccc[nH]1)c1cccc(C(F)(F)F)c1 (centres undefined)

>  <unitSymbol>
%

>  <cytotoxicity at 10 µM>
-2.54

$$$$
>  <molecule>
CC(C)c1noc(CN2CCN(C(=O)c3ccc(F)cc3)CC2)n1

>  <unitSymbol>
%

>  <cytotoxicity at 10 µM>
-9.73

$$$$

---

- method: Toxicity liver stage against HepG2, at 10uM
- Type: cell-based
- Design: test concentration 10 uM, cell line HepG2-A16-CD81EGFP
- testContext: human, HepG2-A16-CD81EGFP cells; read-out: INHIBITION
cytotoxicity at 10 µM values by entry
quantityName: cytotoxicity at 10 µM (%)

>  <compound>
CN1CCN(C(=O)Cc2ccsc2)Cc2cccnc21

>  <endpointResult>
-1.16

$$$$
>  <compound>
c1ccc(O[C@H]2CO[C@@]3(CCCN(Cc4nccs4)C3)C2)nc1

>  <endpointResult>
-71.3

$$$$
>  <compound>
CCN1CCN(S(=O)(=O)N2CCC(OC)CC2)[C@H]2CS(=O)(=O)C[C@H]21

>  <endpointResult>
-1.6

$$$$
>  <compound>
O=C(Cc1cccc(F)c1)NCCNc1ncccn1

>  <endpointResult>
-6.71

$$$$
>  <compound>
CN(Cc1ccncc1)C(=O)c1ccc(F)c(NS(C)(=O)=O)c1

>  <endpointResult>
-0.453

$$$$
>  <compound>
NC(=O)C1(c2cnccn2)CCCN1Cc1ccc(F)c(F)c1 (stereo unspecified)

>  <endpointResult>
-14

$$$$
>  <compound>
Cc1cccnc1CC(C)N(C)Cc1cccs1 (stereo unspecified)

>  <endpointResult>
-12.4

$$$$
>  <compound>
Cc1nn(C)c(C)c1CCC(=O)NCC1(C(N)=O)CCOCC1

>  <endpointResult>
7.75

$$$$
>  <compound>
Cc1ccc(F)cc1CC(=O)N1CC[C@@]2(O)CCNC[C@H]2C1

>  <endpointResult>
2.38

$$$$
>  <compound>
Cc1ccc(OCCC(=O)NC2CCc3nccn3C2)cc1 (stereo unspecified)

>  <endpointResult>
-8.15

$$$$
>  <compound>
CCCc1n[nH]c(C2CN(C(=O)CCc3cscn3)CCO2)n1 (stereo unspecified)

>  <endpointResult>
-1.63

$$$$
